- Tested on: A549
- TEST METHOD NOTES: Cytotoxicity against human A549 cells after 96 hrs by MTT assay
- MEASUREMENT CONTEXT: A549, 96 h
Here the recorded IC50 is given for each entry.
Give a bare numeral; the unit µM is implied.

MOLECULE	UNITS	READOUT NUMBER
COC(=O)C(Cc1ccccc1)NC(=O)Cn1cc(C2=C(c3c[nH]c4ccccc34)C(=O)N(C)C2=O)c2ccccc21 (single isomer, unassigned)	µM	88.1

Query string: Param item = COC(=O)CCC(NC(=O)Cn1cc(C2=C(c3c[nH]c4ccccc34)C(=O)N(C)C2=O)c2ccccc21)C(=O)OC (single isomer, unassigned) ; retrieve measured IC50.
Result string: 73.7

----------
- Test system: A2780
- TEST METHOD NOTES: Cytotoxicity against human A2780 cells after 96 hrs by MTT assay
- MEASUREMENT CONTEXT: A2780, 96 h
PROPERTY: IC50

Examples from the recorded data:
COMPOUND	PROPERTY	RESULT
COC(=O)CC(NC(=O)Cn1cc(C2=C(c3c[nH]c4ccccc34)C(=O)N(C)C2=O)c2ccccc21)C(=O)OC (single isomer, unassigned)	IC50	15.4 µM
COC(=O)C(C)NC(=O)Cn1cc(C2=C(c3c[nH]c4ccccc34)C(=O)N(C)C2=O)c2ccccc21 (single isomer, unassigned)	IC50	15.8 µM
COC(=O)C(Cc1ccc(O)cc1)NC(=O)Cn1cc(C2=C(c3c[nH]c4ccccc34)C(=O)N(C)C2=O)c2ccccc21 (single isomer, unassigned)	IC50	> 100 µM
COC(=O)[C@H](NC(=O)Cn1cc(C2=C(c3c[nH]c4ccccc34)C(=O)N(C)C2=O)c2ccccc21)[C@@H](C)O (single isomer, unassigned)	IC50	21.4 µM
COC(=O)[C@@H](CO)NC(=O)Cn1cc(C2=C(c3c[nH]c4ccccc34)C(=O)N(C)C2=O)c2ccccc21	IC50	23.2 µM

Query string: GET /values?readout=IC50&item= COC(=O)C(CC(C)C)NC(=O)Cn1cc(C2=C(c3c[nH]c4ccccc34)C(=O)N(C)C2=O)c2ccccc21 (single isomer, unassigned)
Result string: 38.5 µM

Query string: Recorded IC50 for `COC(=O)[C@H](NC(=O)Cn1cc(C2=C(c3c[nH]c4ccccc34)C(=O)N(C)C2=O)c2ccccc21)C(C)C` , please?
Result string: 23.8 µM

----------
Listed here: items and their measured IC50.
- Test system: A549
- TEST METHOD NOTES: Cytotoxicity against human A549 cells after 96 hrs by MTT assay
- MEASUREMENT CONTEXT: A549, 96 h
Write the value in µM as a bare number.

COMPOUND	UNITS	IC50
COC(=O)CNC(=O)Cn1cc(C2=C(c3c[nH]c4ccccc34)C(=O)N(C)C2=O)c2ccccc21	µM	78.3
COC(=O)[C@H](NC(=O)Cn1cc(C2=C(c3c[nH]c4ccccc34)C(=O)N(C)C2=O)c2ccccc21)[C@@H](C)O (single isomer, unassigned)	µM	25.7

Now for the compound whose IC50 we want.
Query string: Which IC50 reading was recorded for the compound `COC(=O)CCNC(=O)Cn1cc(C2=C(c3c[nH]c4ccccc34)C(=O)N(C)C2=O)c2ccccc21` ?
Result string: 37.6

----------
Recorded pIC50 by entry
- System: A549
- TEST METHOD NOTES: Cytotoxicity against human A549 cells after 96 hrs by MTT assay
- MEASUREMENT CONTEXT: A549, 96 h
pIC50: −log10 of the molar value.

Reference set (2 entries):
COMPOUND	ASSAY TARGET	RESULT
COC(=O)C(Cc1ccc(O)cc1)NC(=O)Cn1cc(C2=C(c3c[nH]c4ccccc34)C(=O)N(C)C2=O)c2ccccc21 (single isomer, unassigned)	A549	< 4.00
COC(=O)C(Cc1ccc(O)c(O)c1)NC(=O)Cn1cc(C2=C(c3c[nH]c4ccccc34)C(=O)N(C)C2=O)c2ccccc21 (single isomer, unassigned)	A549	< 4.00

Now look at this entry.
Query string: Return reported pIC50; argument: COC(=O)C(C)NC(=O)Cn1cc(C2=C(c3c[nH]c4ccccc34)C(=O)N(C)C2=O)c2ccccc21 (single isomer, unassigned)
Result string: 4.52
